IC50: recorded values
Molecular target: AAK1 (Homo sapiens, UniProt Q2M2I8)
Construct: HA; expressed in transfected cells; host or cells: HEK293F
Sequence (Q2M2I8 1-863 isoform Q2M2I8-2): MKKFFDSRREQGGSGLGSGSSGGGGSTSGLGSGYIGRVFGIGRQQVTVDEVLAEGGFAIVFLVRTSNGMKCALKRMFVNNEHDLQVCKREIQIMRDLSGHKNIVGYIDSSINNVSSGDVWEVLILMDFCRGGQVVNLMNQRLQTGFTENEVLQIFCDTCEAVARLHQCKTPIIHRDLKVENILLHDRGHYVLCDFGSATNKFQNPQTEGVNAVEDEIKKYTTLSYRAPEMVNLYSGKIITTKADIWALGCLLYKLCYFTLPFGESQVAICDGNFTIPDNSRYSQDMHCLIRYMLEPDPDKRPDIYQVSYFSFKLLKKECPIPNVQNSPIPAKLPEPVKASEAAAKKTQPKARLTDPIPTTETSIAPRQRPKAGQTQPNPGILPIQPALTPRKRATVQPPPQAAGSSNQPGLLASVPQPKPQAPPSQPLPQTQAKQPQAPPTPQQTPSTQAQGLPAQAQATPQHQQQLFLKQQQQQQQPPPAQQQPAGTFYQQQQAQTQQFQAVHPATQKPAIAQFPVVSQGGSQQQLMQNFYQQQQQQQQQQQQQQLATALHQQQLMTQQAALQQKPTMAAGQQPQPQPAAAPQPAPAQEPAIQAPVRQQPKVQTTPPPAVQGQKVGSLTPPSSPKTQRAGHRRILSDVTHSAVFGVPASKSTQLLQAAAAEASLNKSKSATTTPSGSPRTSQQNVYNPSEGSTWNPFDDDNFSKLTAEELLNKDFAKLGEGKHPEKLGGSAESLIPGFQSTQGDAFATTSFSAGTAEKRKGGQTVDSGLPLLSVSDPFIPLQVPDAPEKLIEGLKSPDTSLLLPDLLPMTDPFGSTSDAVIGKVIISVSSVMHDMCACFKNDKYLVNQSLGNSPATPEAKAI
Assay: P81 filter plate assay
Assay type: biochemical
Settings: full-length human AAK1, Mu2 substrate

| Compound | IC50 |
| --- | --- |
| CN(C(=O)N1CCCC1)[C@H]1CCN(c2ccc3ncc(-c4ccncc4)n3n2)C1 | ≤ 100 nM |
| COc1cncc(-c2cnc3ccc(NCCOC4CCCC4)nn23)c1 | ≤ 10 nM |
| COc1cccc(-c2cnc3ccc(N4CCN(C(=O)OC(C)C)CC4)nn23)c1F | ≤ 10 nM |
| CN(C(=O)OC(C)(C)C)[C@H]1CCN(c2ccc3ncc(-c4ccncc4)n3n2)C1 | ≤ 10 nM |
| COc1cccc(-c2cnc3ccc(NC[C@@H]4CCCN4C(=O)CC(C)C)nn23)c1 | ≤ 10 nM |
| COC(=O)c1cnn(-c2ccc3ncc(-c4cccnc4OC)n3n2)c1 | ≤ 10 nM |
| CC(C)(C)OC(=O)N1CCC[C@H]1CNc1ccc2ncc(-c3ccc(C(N)=O)cc3)n2n1 | ≤ 10 nM |
| Cc1cnc2ccc(N3CCN(C(=O)[C@@H](N)C(C)C)CC3)nn12 | ≤ 10 nM |
| CC(C)(C)OC(=O)N1CC[C@H]1CNc1ccc2ncc(Br)n2n1 | ≤ 10 nM |
| COc1ncccc1-c1cnc2ccc(N3CC[C@H](N(C)C(=O)N4CCCC4)C3)nn12 | ≤ 10 nM |
| COc1ccc(-c2cnc3ccc(NC[C@@H]4CCCN4C(=O)CC(C)C)nn23)cc1 | ≤ 10 nM |
| COCCO[C@H]1CCN(c2ccc3ncc(-c4cccnc4OC)n3n2)C1 | ≤ 1000 nM |
| CC(=O)c1cnc2ccc(N3CCN(C(=O)C4(N)CCCC4)CC3)nn12 | ≤ 100 nM |
| O=C(OC1CCOC1)N1CCC[C@H]1CNc1ccc2ncc(Br)n2n1 (some centres unmarked) | ≤ 10 nM |
| COc1ncccc1-c1cnc2ccc(N3CCN(C(=O)N4CCCCC4)CC3)nn12 | ≤ 10 nM |
| c1cc(-c2cnc3ccc(NCCOC4CCCC4)nn23)cs1 | ≤ 100 nM |
| Cc1ccc(-c2cnc3ccc(N4CC[C@H](N(C)C(=O)OC(C)C)C4)nn23)c(=O)n1C | ≤ 100 nM |
| CC(C)CC(=O)N1CCC[C@H]1CNc1ccc2ncc(-c3cccc(Cl)c3)n2n1 | ≤ 10 nM |
| CC(C)CC(=O)N1CCC[C@H]1CNc1ccc2ncc(-c3ccc(F)cc3)n2n1 | ≤ 10 nM |
| CCOC(=O)N(C)[C@H]1CCN(c2ccc3ncc(-c4cccnc4OC)n3n2)C1 | ≤ 10 nM |
| CC(C)CC(=O)N1CCC[C@H]1CNc1ccc2ncc(-c3cccc(C#N)c3)n2n1 | ≤ 10 nM |
| CC(C)NC(=O)N1CCN(c2ccc3ncc(-c4ccccc4)n3n2)CC1 | ≤ 10 nM |
| OCc1ccc(-c2cnc3ccc(NCCOC4CCCC4)nn23)cc1 | ≤ 10 nM |
| CC(C)(C)CCN1C(=O)CC[C@H]1CNc1ccc2ncc(Br)n2n1 | ≤ 10 nM |
| COc1nc(C)ccc1-c1cnc2ccc(N3CCN(C(=O)OC(C)C)CC3)nn12 | ≤ 10 nM |
| CC(C)SC(=O)N1CCN(c2ccc3ncc(-c4ccccc4)n3n2)CC1 | ≤ 10 nM |
| CC(C)CC(=O)N1CCC[C@H]1CNc1ccc2ncc(C3=CCCC3)n2n1 | ≤ 10 nM |
| NCc1ccc(-c2cnc3ccc(NC[C@@H]4CCCN4C(=O)OC4CCCC4)nn23)cc1 | ≤ 10 nM |
| CC(C)CC(=O)N(C)[C@H]1CCN(c2ccc3ncc(-c4cccnc4O)n3n2)C1 | ≤ 100 nM |
| COc1ncccc1-c1cnc2ccc(N3CC(N(C)C(=O)OC(C)(C)C)C3)nn12 | ≤ 1000 nM |
| COc1ccccc1-c1cnc2ccc(N3CC[C@H](N(C)C(=O)OC(C)(C)C)C3)nn12 | ≤ 10 nM |
| O=C(OC1CCCC1)N1CCC[C@H]1CNc1ccc2ncc(-c3ccccc3)n2n1 | ≤ 10 nM |
| O=C(OCC1CC1)N1CCC[C@H]1CNc1ccc2ncc(Br)n2n1 | ≤ 10 nM |
| CC(C)OC(=O)N1CCN(c2ccc3ncc(-c4cccc5c4OC(F)(F)O5)n3n2)CC1 | ≤ 10 nM |
| CCOC(=O)N(C)[C@H]1CCN(c2ccc3ncc(-c4cc(F)cnc4OC)n3n2)C1 | ≤ 10 nM |
| CCCC(=O)N(C)[C@H]1CCN(c2ccc3ncc(-c4ccncc4)n3n2)C1 | ≤ 100 nM |
| COc1ccccc1-c1cnc2ccc(N3CCN(C(=O)NC(C)C)CC3)nn12 | ≤ 10 nM |
| Cc1cc(-c2cnc3ccc(NC[C@@H]4CCCN4C(=O)CC(C)C)nn23)ccn1 | ≤ 10 nM |
| COc1ccccc1-c1cnc2ccc(N3CC[C@H](N(C)C(=O)N4CCCC4)C3)nn12 | ≤ 10 nM |
| CC(C)(C)OC(=O)N1CCC[C@H]1CNc1ccc2ncc(-c3ccccc3)n2n1 | ≤ 10 nM |
| COc1ncccc1-c1cnc2ccc(N3CCN(C(=O)OC(C)C)CC3)nn12 | ≤ 10 nM |
